Readings of pKi for the listed compounds
Target: Acetylcholinesterase (Electrophorus electricus, UniProt O42275)
Sequence (O42275 whole entry): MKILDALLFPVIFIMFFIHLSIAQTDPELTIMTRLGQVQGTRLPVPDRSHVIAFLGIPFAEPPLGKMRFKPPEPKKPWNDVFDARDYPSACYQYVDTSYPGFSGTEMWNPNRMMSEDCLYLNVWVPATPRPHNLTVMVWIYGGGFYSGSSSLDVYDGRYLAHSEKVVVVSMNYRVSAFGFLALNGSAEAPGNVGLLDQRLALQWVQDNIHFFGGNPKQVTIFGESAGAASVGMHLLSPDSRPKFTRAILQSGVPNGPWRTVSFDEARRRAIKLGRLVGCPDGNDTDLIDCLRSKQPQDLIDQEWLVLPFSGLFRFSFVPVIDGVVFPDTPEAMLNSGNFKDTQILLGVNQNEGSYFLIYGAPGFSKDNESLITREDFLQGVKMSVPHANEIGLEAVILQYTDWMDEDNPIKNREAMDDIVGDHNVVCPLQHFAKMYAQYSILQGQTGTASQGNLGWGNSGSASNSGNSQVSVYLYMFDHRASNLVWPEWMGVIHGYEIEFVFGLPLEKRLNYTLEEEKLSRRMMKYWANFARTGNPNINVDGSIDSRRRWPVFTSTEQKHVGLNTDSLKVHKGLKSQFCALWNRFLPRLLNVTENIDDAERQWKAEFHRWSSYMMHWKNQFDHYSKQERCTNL
Assay: Inhibition of Electrophorus electricus AChE using acetylthiocholine iodide as substrate preincubated for 20mins before the addition of substrate by Ellman's method
Settings: read-out: Ki
pKi: −log10 of the molar value.
endpoint label: pKi

1. CC1(C)CC[C@]2(C(=O)OCc3cccc(Cl)c3)CC[C@]3(C)C(=CC[C@@H]4[C@@]5(C)C[C@@H](O)[C@H](O)C(C)(C)[C@@H]5CC[C@]43C)[C@@H]2C1 ... < 5.00
2. CCCNC(=O)[C@]12CCC(C)(C)C[C@H]1C1=CC[C@@H]3[C@@]4(C)C[C@@H](OC(C)=O)[C@H](OC(C)=O)C(C)(C)[C@@H]4CC[C@@]3(C)[C@]1(C)CC2 ... < 5.22
3. C#CCOC(=O)[C@]12CCC(C)(C)C[C@H]1C1=CC[C@@H]3[C@@]4(C)C[C@@H](O)[C@H](O)C(C)(C)[C@@H]4CC[C@@]3(C)[C@]1(C)CC2 ... < 5.00

Values compiled from ChEMBL document CHEMBL3779826.
